# Measurement Target: CCR2 (Homo sapiens, UniProt P41597)
# Sequence (P41597 1-360 isoform P41597-2): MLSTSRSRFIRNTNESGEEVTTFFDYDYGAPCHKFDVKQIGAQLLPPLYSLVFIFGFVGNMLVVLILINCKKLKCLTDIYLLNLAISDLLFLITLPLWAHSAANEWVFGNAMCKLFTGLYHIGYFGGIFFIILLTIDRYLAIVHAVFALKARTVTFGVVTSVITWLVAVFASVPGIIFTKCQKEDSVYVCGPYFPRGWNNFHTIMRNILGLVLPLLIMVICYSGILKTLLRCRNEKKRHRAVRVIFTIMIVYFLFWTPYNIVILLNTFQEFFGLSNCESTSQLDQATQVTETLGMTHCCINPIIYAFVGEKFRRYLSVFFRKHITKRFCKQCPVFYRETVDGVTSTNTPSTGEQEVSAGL
# Protocol: MCP-1 Receptor Binding Assay in THP-1 Cells
# Condition Info: THP-1 cells, 0.5 nM 125I labeled MCP-1, 2 hours at 30° C.; read-out: Mean Ligand Binding IC50 (inhibition of MCP-1 binding to CCR2)
# Description: THP-1 cells were obtained from American Type Culture Collection (Manassas, Va., USA). […] The cell density was maintained between 0.5×10^6 cells/mL. Cells were then harvested onto a filter plate, dried, and 20 μL of Microscint 20 was added to each well. Plates were counted in a TopCount NXT, Microplate Scintillation & Luminescence Counter (Perkin-Elmer Life Sciences, Inc. Boston, Mass.). […]
Consider the following partition of reported IC50 into named classes: bin A (below 200 nM), bin B (200 nM to below 2000 nM), bin C (2000 nM or more)

1) C[N+](C)(Cc1ccc(NC(=O)c2cc3cc(Cl)ccc3o2)cc1)C1CCOCC1 | bin B
2) Cc1cc(Cl)cc2c1OCC(C(=O)Nc1ccc(C[N+](C)(C)C3CCOCC3)cc1)=C2 | bin A
3) C[N+](C)(Cc1ccc(CNC(=O)C=Cc2cccc(Br)c2)cc1)C1CCCCC1 | bin C
4) C[N+](C)(Cc1ccc(NC(=O)C2=Cc3cc(Br)ccc3OC2)cc1)C1CCCCC1 | bin B
5) C[N+](C)(Cc1ccc(NC(=O)c2ccc(F)c(Cl)c2)cc1)C1CCCCC1 | bin A

Band of C[N+](C)(Cc1ccc(NC(=O)C2=Cc3cc(Cl)c(Cl)cc3OCC2)cc1)C1CCSC1 (stereo not drawn) ? bin B

Proceed to C[N+](C)(Cc1ccc(NC(=O)C2=Cc3cc(Br)ccc3OC2)cc1)C1CCOCC1 bin A

// repeat for COc1ccc(C(=O)Nc2ccc(C[N+](C)(C)C3CCCCC3)cc2)cc1Cl and report bin B

Another molecule to look at: C[N+](C)(Cc1ccc(NC(=O)c2cc3cc(Cl)ccc3o2)cc1)C1CCCCC1 bin A

Ok, now C[N+]1(Cc2ccc(CNC(=O)C=Cc3cccc(Br)c3)cc2)CCCCC1 bin C

Then what about the molecule C[N+]1(Cc2ccc(NC(=O)C3=Cc4c(ccc5ccccc45)OC3)cc2)CCCC1 ? bin C

Check C[N+](C)(Cc1ccc(NC(=O)C=Cc2cccc(C(F)(F)F)c2)cc1)C1CCOCC1 too. bin B

Try CC(C)(C)c1ccc2c(c1)C=C(C(=O)Nc1ccc(C[N+](C)(C)C3CCCCC3)cc1)CO2 next. bin A

# iterate: C[N+](C)(Cc1ccc(NC(=O)C=Cc2cccc(Cl)c2)cc1)C1CCOCC1 bin B

Same question, C[N+](C)(Cc1ccc(NC(=O)c2cc(Cl)ccc2Cl)cc1)C1CCOCC1 this time bin C

Now consider C[N+](C)(Cc1ccc(NC(=O)C2=Cc3cc(Cl)cc(Cl)c3OC2)cc1)C1CCOCC1 and answer again. bin A

Continue with C[N+]1(Cc2cccc(NC(=O)c3cccc(C(F)(F)F)c3)c2)CCCCC1 bin C

Another molecule to check: C[N+](C)(Cc1ccc(NC(=O)c2cc3ccccc3s2)cc1)C1CCOCC1 bin B

* * *

# Measurement Target: CCR2 (Homo sapiens)
# Protocol: MCP-1 Receptor Binding Assay in THP-1 Cells
# Condition Info: THP-1 cells, 0.5 nM 125I labeled MCP-1, 2 hours at 30° C.; read-out: Mean Ligand Binding IC50 (inhibition of MCP-1 binding to CCR2)
Could you please mark satisfied for values of IC50 below 400 nM and not satisfied for values at or above it?

Illustrative cases are given below, each with its answer.
1) C[N+](C)(Cc1ccc(NC(=O)c2cc(Cl)ccc2Cl)cc1)C1CCCCC1 [Cpd 81] | not satisfied
2) C[N+](C)(Cc1ccc(NC(=O)C2=Cc3cc(Cl)ccc3OC2)cc1)[C@H]1CC2CCC1C2 (some centres unmarked) [Cpd 110] | satisfied
3) C[N+](C)(Cc1ccc(NC(=O)C=Cc2cccc(Br)c2)cc1)C1CCSCC1 [Cpd 44] | not satisfied

Please look at the following compound next.
Hello, is IC50 of the following compound strictly smaller than 400 nM? C[N+](C)(Cc1cccc(NC(=O)C=Cc2ccc(Cl)c(Cl)c2)c1)C1CCCCC1 [Cpd 83] not satisfied

* * *

Overview of reported IC50 across a group of compounds:
# Measurement Target: CCR2 (Homo sapiens)
# Protocol: MCP-1 Receptor Binding Assay in THP-1 Cells
# Condition Info: THP-1 cells, 0.5 nM 125I labeled MCP-1, 2 hours at 30° C.; read-out: Mean Ligand Binding IC50 (inhibition of MCP-1 binding to CCR2)
Kindly answer with a numeric value in µM, unit omitted.

Example entries and their recorded answers appear below.
1) C[N+](C)(Cc1ccc(NC(=O)c2ccc3ccc(Br)cc3c2)cc1)C1CCCCC1 | 1.3
2) C=CC[N+](C)(Cc1ccc(NC(=O)C=Cc2cccc(Br)c2)cc1)C1CCSCC1 (stereo not shown) | 3.5

Entry C[N+](C)(Cc1ccc(NC(=O)C2=Cc3c(Cl)cc(Cl)cc3OC2)cc1)C1CCOCC1 , system CCR2 (Homo sapiens): what IC50 was measured? 0.52

How about this compound: C[N+](C)(Cc1ccc(NC(=O)c2cccc(C(F)(F)F)c2)cc1)C1CCCCC1 1.5

Please give the result for C[N+](C)(Cc1ccc(NC(=O)c2cccc(Br)c2)cc1)C1CCCCC1 too. 0.44

Please give the result for C[N+](C)(Cc1ccc(CNC(=O)c2cccc(Br)c2)cc1)C1CCCCC1 too. 5.5

Next record, please: C[N+](C)(Cc1ccc(NC(=O)C2=Cc3cc(C(F)(F)F)ccc3OC2)cc1)C1CCSC1 (stereo not shown) 0.3

Likewise for C[N+](C)(Cc1ccc(NC(=O)C2=Cc3cc(Br)ccc3CCC2)cc1)C1CCCCC1 ? 0.33

Okay, and C[N+](C)(Cc1ccc(NC(=O)c2ccc3ccc(Br)cc3c2)cc1)C1CCOCC1 ? 0.9

Okay, and C[N+](C)(Cc1ccc(NC(=O)C2=Cc3c(ccc4ccccc34)OC2)cc1)CC1CCOCC1 ? 1

* * *

The entries below come with measured inhibition at 25 µM values attached.
# Measurement Target: UniProt P41597
# Protocol: MCP-1 Receptor Binding Assay in THP-1 Cells
# Condition Info: MCP-1 binding to CCR2; test concentration of 25 μM, unless indicated otherwise; read-out: % Inhibition Ligand Binding
Please state the number and follow it with the unit.

Answered examples (3):
1) C[N+](C)(Cc1ccc(NC(=O)C=Cc2ccc(Cl)c(Cl)c2)cc1)C1CCSCC1 [Cpd 41] | 87%
2) C[N+](C)(Cc1ccc(CNC(=O)C2=Cc3cc(Br)ccc3OC2)cc1)C1CCOCC1 [Cpd 99] | 34%
3) C[N+]1(Cc2ccc(CNC(=O)C=Cc3cccc(C(F)(F)F)c3)cc2)CCOCC1 [Cpd 62] | 9%

// lookup inhibition at 25 µM for C[N+](C)(Cc1ccc(NC(=O)c2cncc(Br)c2)cc1)C1CCOCC1 [Cpd 172] 17%

What do we get for C[N+](C)(Cc1ccc(CNC(=O)C2=Cc3cc(Br)ccc3CCC2)cc1)C1CCOCC1 [Cpd 142] ? -18%

Same lookup for C[N+](C)(Cc1ccc(NC(=O)c2sc3ccccc3c2Cl)cc1)C1CCOCC1 [Cpd 174] , please. 52%

Also C[N+]1(Cc2ccc(NC(=O)C3=Cc4ccccc4CCC3)cc2)CCCC1 [Cpd 145] ? 36%

Repeat with Cc1oc(-c2ccccc2)cc1C(=O)NCc1ccc(C[N+](C)(C)C2CCOCC2)cc1 [Cpd 149] 58%

Also C[N+](C)(Cc1ccc(NC(=O)c2cccc3ccccc23)cc1)C1CCOCC1 [Cpd 89] , if possible. 29%

Another compound: C[N+](C)(Cc1ccc(NC(=O)C2=Cc3cc(F)ccc3OC2)cc1)C1CCCCC1 [Cpd 123] 100%

// next record C[N+](C)(Cc1ccc(CNC(=O)C2=Cc3cc(Cl)c(Cl)cc3OCC2)cc1)C1CCOCC1 [Cpd 170] 36%

Also C[N+](C)(Cc1ccc(CNC(=O)C=Cc2cccc(C(F)(F)F)c2)cc1)C1CCOCC1 [Cpd 64] ? 63%

How about this compound: C[N+](C)(Cc1ccc(CNC(=O)C2=Cc3ccccc3CCC2)cc1)C1CCOCC1 [Cpd 148] 7%

Further, for Cc1cc(Cl)cc2c1OCC(C(=O)NCc1ccc(C[N+](C)(C)C3CCOCC3)cc1)=C2 [Cpd 121] ? 37%

Now consider Cn1cc(C(=O)Nc2ccc(C[N+](C)(C)C3CCOCC3)cc2)c2ccccc21 [Cpd 161] and answer again. 33%

For C[N+]1(Cc2ccc(CNC(=O)C=Cc3ccc(Cl)c(Cl)c3)cc2)CCOCC1 [Cpd 58] then? 53%

* * *

# Measurement Target: CCR2 (Homo sapiens, UniProt P41597)
# Protocol: MCP-1 Receptor Binding Assay in THP-1 Cells
# Condition Info: THP-1 cells, 0.5 nM 125I labeled MCP-1, 2 hours at 30° C.; read-out: Mean Ligand Binding IC50 (inhibition of MCP-1 binding to CCR2)
The following molecules are listed with their measured IC50 values.
Respond with the bare value in nM.

Some solved cases for reference:
1. C[N+](C)(Cc1ccc(NC(=O)c2cc3cc(Cl)ccc3[nH]2)cc1)CC1CC2CCC1C2 (stereo not drawn) | 110
2. C[N+]1(Cc2ccc(NC(=O)C=Cc3ccc(Cl)c(Cl)c3)cc2)CCCCC1 | 3200

# context switch: different molecule, same IC50
Item C[N+](C)(Cc1ccc(NC(=O)C2=Cc3c(Cl)cc(Cl)cc3OC2)cc1)C1CCCCC1 has what recorded IC50? 1100
